Target: recombinant guanylate cyclase reporter cell line (Rattus norvegicus, UniProt P19686+P20595)
Construct: expressed in transfected cells
Sequence (P20595 1-619): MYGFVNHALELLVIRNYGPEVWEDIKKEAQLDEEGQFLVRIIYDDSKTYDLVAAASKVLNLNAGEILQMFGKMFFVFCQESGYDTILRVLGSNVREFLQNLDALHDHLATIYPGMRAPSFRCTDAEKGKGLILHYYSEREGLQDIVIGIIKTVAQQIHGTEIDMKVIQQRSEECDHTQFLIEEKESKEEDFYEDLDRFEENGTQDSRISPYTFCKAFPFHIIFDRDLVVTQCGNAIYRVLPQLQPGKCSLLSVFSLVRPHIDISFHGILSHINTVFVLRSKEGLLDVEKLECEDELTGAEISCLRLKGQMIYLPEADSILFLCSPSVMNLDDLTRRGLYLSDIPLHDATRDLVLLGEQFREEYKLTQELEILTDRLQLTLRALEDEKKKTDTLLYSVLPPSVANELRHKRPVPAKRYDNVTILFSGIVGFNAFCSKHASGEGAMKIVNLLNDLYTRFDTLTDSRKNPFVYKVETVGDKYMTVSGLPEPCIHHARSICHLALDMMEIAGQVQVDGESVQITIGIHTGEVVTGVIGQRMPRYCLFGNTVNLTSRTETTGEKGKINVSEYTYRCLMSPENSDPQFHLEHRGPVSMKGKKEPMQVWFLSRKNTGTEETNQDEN
Sequence (P19686 1-690): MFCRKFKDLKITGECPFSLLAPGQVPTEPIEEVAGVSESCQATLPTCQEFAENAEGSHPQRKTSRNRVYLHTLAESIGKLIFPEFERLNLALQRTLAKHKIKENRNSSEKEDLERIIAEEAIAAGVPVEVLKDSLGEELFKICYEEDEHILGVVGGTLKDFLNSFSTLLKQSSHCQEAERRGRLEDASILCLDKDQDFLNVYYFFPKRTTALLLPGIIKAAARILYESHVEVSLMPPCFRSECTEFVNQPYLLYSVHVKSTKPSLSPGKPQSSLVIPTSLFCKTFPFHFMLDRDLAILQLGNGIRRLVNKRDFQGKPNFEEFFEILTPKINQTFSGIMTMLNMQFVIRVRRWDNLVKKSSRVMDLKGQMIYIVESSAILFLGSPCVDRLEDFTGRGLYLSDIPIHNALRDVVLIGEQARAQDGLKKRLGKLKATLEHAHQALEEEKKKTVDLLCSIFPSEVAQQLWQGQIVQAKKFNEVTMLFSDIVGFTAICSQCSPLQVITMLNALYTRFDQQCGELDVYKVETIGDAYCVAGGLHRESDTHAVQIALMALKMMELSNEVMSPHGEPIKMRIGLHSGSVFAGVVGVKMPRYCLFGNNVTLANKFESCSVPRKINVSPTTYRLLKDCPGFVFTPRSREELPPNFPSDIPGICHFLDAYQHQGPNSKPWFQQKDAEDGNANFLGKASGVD
Assay: B-2. Action on recombinant guanylate cyclase reporter cell line
Format: cell-based
Settings: MEC = minimal effective concentration; in some cases mean values from individual determinations
Record form. Attribute: MEC. Fill in for each entry.
Please respond with the number in µM and leave the unit unwritten.

MEC in this record for Cc1nc2c(OCc3c(F)cccc3F)cccn2c1C(=O)NC1CCNc2ccc(C(F)(F)F)cc21 (single isomer, unassigned; ent-8) [Example 111] : 1.00

MEC in this record for Cc1nc2c(OCc3c(F)cccc3F)cc(Cl)cn2c1C(=O)NCC(C)N (single isomer, unassigned; enantiomer b) [Example 30] : 0.30

MEC in this record for Cc1nc2c(OCc3c(F)cccc3F)cccn2c1C(=O)NCC(C)(N)CC(C)C (racemic) [Example 202] : 0.10

MEC in this record for Cc1nc2c(OCc3c(F)cccc3F)cccn2c1C(=O)NCC(N)COC(C)C (racemic) : 0.30
